Origin of the recorded values: patent US20260242478A1

Target: T1, PSMA Fab (006 PSMA Fab) (biotinylated (site not stated))
T1 construct: also called Anti-PSMA Fab
Test: clonal phage ELISA on biotinylated PSMA Fab captured on neutravidin, anti-M13 HRP detection, no PSMA antigen
Where no end group is shown, it is not given here.
Give measured Phage binding ELISA signal, Anti-PSMA Fab for each item. Keep answers brief.
One number for each entry.

Answered cases to consult:
>>> measuredresult("TTAYCIPPWMCSGF [Phage-2955]")
2.27
>>> measuredresult("ADPVCRPQWMCEGF [Phage-2961]")
2.26
>>> measuredresult("FPHMCKPEWMCAGF (cysteine pairing not given here; also: peptide displayed as fusion to phage pIII) [Phage-2948]")
2.28

For each of the items listed, what is its Phage binding ELISA signal, Anti-PSMA Fab?
1. YLQFCKPVWMCTGF [Phage-2956]
2. VDIQCKPLWMCIGM [Phage-2953]
3. AYEMCIPAWMCEGF [Phage-2957]
4. WEQRCVPEWMCVGF [Phage-2960]
5. ENIMCEPMWMCIGF [Phage-2951]
6. SSPICKPMWMCTGF [Phage-2950]

Result string:
1. 2.27
2. 2.27
3. 2.27
4. 2.26
5. 2.27
6. 2.28
